# Assay info: Plasma pharmacokinetic of MIV-701 after single and repeated oral administration of MIV-701 besylate salt in healthy beagle dogs
# Format: in vivo
# Settings: dog, plasma MIV-701, oral 1 mg/kg, Day 0 (single), read-out: AUC(0-tfinal) (converted)
Where a name gives a salt, the structure may show the parent alone.
Observable: AUC(0-t) (µM·h)
Reply with just the number (in µM·h).

Incoming: Returns the measured AUC(0-t) for the input molecule. Input: CC(C)C[C@H](NC(=O)c1ccc(-c2csc(N3CCN(C)CC3)n2)cc1)C(=O)N1C[C@H](F)[C@H]2OCC(O)(O)[C@H]21 [MIV-701 besylate salt]
Outgoing: 0.0429

====

# Assay info: Plasma pharmacokinetic of MIV-701 after single and repeated oral administration of MIV-701 besylate salt in healthy cats
# Format: in vivo
# Settings: cat, plasma MIV-701, oral 10 mg/kg, Day 0 (single), read-out: AUC(0-tfinal) (converted)
Structures can show the parent of a compound that is named as a salt.
Observable: AUC(0-t) (µM·h)
# number only, unit µM·h dropped from output

Incoming: # AUC(0-t) lookup, item CC(C)C[C@H](NC(=O)c1ccc(-c2csc(N3CCN(C)CC3)n2)cc1)C(=O)N1C[C@H](F)[C@H]2OCC(O)(O)[C@H]21 [MIV-701 besylate salt]
Outgoing: 2.78

====

# Assay info: Plasma pharmacokinetic of MIV-701 after single and repeated oral administration of MIV-701 besylate salt in healthy beagle dogs
# Assay type: in vivo
# Settings: dog, plasma MIV-701, oral 10 mg/kg once daily, Day 13 (repeated), read-out: AUC(0-infini) (converted)
Counter-ions that a name gives are not always drawn.
Observable: AUC(0-inf) at 312 h (µM·h)
Report only the number, with the unit µM·h understood.

Incoming: # query: AUC(0-inf) at 312 h of entry CC(C)C[C@H](NC(=O)c1ccc(-c2csc(N3CCN(C)CC3)n2)cc1)C(=O)N1C[C@H](F)[C@H]2OCC(O)(O)[C@H]21 [MIV-701 besylate salt]
Outgoing: 1.91

====

# Assay info: Plasma pharmacokinetic of MIV-701 after single and repeated oral administration of MIV-701 besylate salt in healthy beagle dogs
# Assay type: in vivo
# Settings: dog, plasma MIV-701, oral 10 mg/kg, Day 0 (single), read-out: T1/2 elimination (converted)
# Method: Compound Ib besylate salt (referred to as MIV-701 besylate salt) was administered once daily for 14 days to 3 healthy beagle dogs at three different doses: 1 mg/kg, 10 mg/kg and 100 mg/kg. […] After centrifugation of blood samples plasma aliquots were stored at -20°C. […] Calibration curve (9 points, 3 to 30 000 nM) was obtained by spiking plasma samples from naive dogs with appropriate quantities of Compound Ib. […]
Counter-ions that a name gives are not always drawn.
Observable: half-life (h)
Form entry: value (h) — number only.

Incoming: Given CC(C)C[C@H](NC(=O)c1ccc(-c2csc(N3CCN(C)CC3)n2)cc1)C(=O)N1C[C@H](F)[C@H]2OCC(O)(O)[C@H]21 [MIV-701 besylate salt] , state its recorded half-life.
Outgoing: 4.1

====

# Assay info: Plasma pharmacokinetic of MIV-701 after single and repeated oral administration of MIV-701 besylate salt in healthy beagle dogs
# Format: in vivo
# Settings: dog, plasma MIV-701, oral 100 mg/kg once daily, Day 13 (repeated), read-out: AUC(0-infini) (converted)
Counter-ions that a name gives are not always drawn.
Observable: AUC(0-inf) at 312 h (µM·h)
Just the number in µM·h, nothing appended.

Incoming: Please report the recorded AUC(0-inf) at 312 h for CC(C)C[C@H](NC(=O)c1ccc(-c2csc(N3CCN(C)CC3)n2)cc1)C(=O)N1C[C@H](F)[C@H]2OCC(O)(O)[C@H]21 [MIV-701 besylate salt] .
Outgoing: 21.4

====

# Assay info: Plasma pharmacokinetic of MIV-701 after single and repeated oral administration of MIV-701 besylate salt in healthy beagle dogs
# Assay type: in vivo
# Settings: dog, plasma MIV-701, oral 1 mg/kg once daily, Day 13 (repeated)
# Experimental: Compound Ib besylate salt (referred to as MIV-701 besylate salt) was administered once daily for 14 days to 3 healthy beagle dogs at three different doses: 1 mg/kg, 10 mg/kg and 100 mg/kg. […] After centrifugation of blood samples plasma aliquots were stored at -20°C. […] Calibration curve (9 points, 3 to 30 000 nM) was obtained by spiking plasma samples from naive dogs with appropriate quantities of Compound Ib. […]
Where a name gives a salt, the structure may show the parent alone.
Observable: Tmax at 312 h (h)
Your answer is read as h, so omit the unit and give the number.

Incoming: Which Tmax at 312 h value is on record for CC(C)C[C@H](NC(=O)c1ccc(-c2csc(N3CCN(C)CC3)n2)cc1)C(=O)N1C[C@H](F)[C@H]2OCC(O)(O)[C@H]21 [MIV-701 besylate salt] ?
Outgoing: 2

====

# Assay info: Plasma pharmacokinetic of MIV-701 after single and repeated oral administration of MIV-701 besylate salt in healthy cats
# Type: in vivo
# Settings: cat, plasma MIV-701, oral 2 mg/kg once daily, Day 13 (repeated), read-out: AUC(0-infini) (converted)
Structures can show the parent of a compound that is named as a salt.
Observable: AUC(0-inf) at 312 h (µM·h)
Give your result in µM·h as a bare value.

Incoming: I am curious: what AUC(0-inf) at 312 h value has been reported for CC(C)C[C@H](NC(=O)c1ccc(-c2csc(N3CCN(C)CC3)n2)cc1)C(=O)N1C[C@H](F)[C@H]2OCC(O)(O)[C@H]21 [MIV-701 besylate salt] ?
Outgoing: 0.984

====

# Assay info: Plasma pharmacokinetic of MIV-701 after single and repeated oral administration of MIV-701 besylate salt in healthy cats
# Format: in vivo
# Settings: cat, plasma MIV-701, oral 2 mg/kg, Day 0 (single)
Counter-ions that a name gives are not always drawn.
Observable: Tmax at 0 h (h)
Numeric answer only, unit h assumed.

Incoming: Entry CC(C)C[C@H](NC(=O)c1ccc(-c2csc(N3CCN(C)CC3)n2)cc1)C(=O)N1C[C@H](F)[C@H]2OCC(O)(O)[C@H]21 [MIV-701 besylate salt] has what Tmax at 0 h?
Outgoing: 2

====

# Assay info: Plasma pharmacokinetic of MIV-701 after single and repeated oral administration of MIV-701 besylate salt in healthy cats
# Type: in vivo
# Settings: cat, plasma MIV-701, oral 10 mg/kg once daily, Day 13 (repeated), read-out: AUC(0-infini) (converted)
Where a name gives a salt, the structure may show the parent alone.
Observable: AUC(0-inf) at 312 h (µM·h)
Give just the number in µM·h; leave the unit off.

Incoming: Give the measured AUC(0-inf) at 312 h of CC(C)C[C@H](NC(=O)c1ccc(-c2csc(N3CCN(C)CC3)n2)cc1)C(=O)N1C[C@H](F)[C@H]2OCC(O)(O)[C@H]21 [MIV-701 besylate salt] .
Outgoing: 5.3

====

# Assay info: Plasma pharmacokinetic of MIV-701 after single and repeated oral administration of MIV-701 besylate salt in healthy cats
# Format: in vivo
# Settings: cat, plasma MIV-701, oral 50 mg/kg, Day 0 (single)
Where a name gives a salt, the structure may show the parent alone.
Observable: Tmax at 0 h (h)
Give the value, in units of h, as a plain number.

Incoming: Field request: Tmax at 0 h | item: CC(C)C[C@H](NC(=O)c1ccc(-c2csc(N3CCN(C)CC3)n2)cc1)C(=O)N1C[C@H](F)[C@H]2OCC(O)(O)[C@H]21 [MIV-701 besylate salt]
Outgoing: 2

====

# Assay info: Plasma pharmacokinetic of MIV-701 after single and repeated oral administration of MIV-701 besylate salt in healthy beagle dogs
# Format: in vivo
# Settings: dog, plasma MIV-701, oral 10 mg/kg, Day 0 (single), read-out: AUC(0-tfinal) (converted)
Structures can show the parent of a compound that is named as a salt.
Observable: AUC(0-t)
A bare number is not enough; add the unit after it.

Incoming: Dear colleague, I am looking for the recorded AUC(0-t) of the following molecule: CC(C)C[C@H](NC(=O)c1ccc(-c2csc(N3CCN(C)CC3)n2)cc1)C(=O)N1C[C@H](F)[C@H]2OCC(O)(O)[C@H]21 [MIV-701 besylate salt]
Outgoing: 1.35 µM·h

====

# Assay info: Plasma pharmacokinetic of MIV-701 after single and repeated oral administration of MIV-701 besylate salt in healthy beagle dogs
# Type: in vivo
# Settings: dog, plasma MIV-701, oral 100 mg/kg, Day 0 (single), read-out: T1/2 elimination (converted)
Structures can show the parent of a compound that is named as a salt.
Observable: half-life (h)
Lab book: enter the figure in h, no units written.

Incoming: Need half-life, item CC(C)C[C@H](NC(=O)c1ccc(-c2csc(N3CCN(C)CC3)n2)cc1)C(=O)N1C[C@H](F)[C@H]2OCC(O)(O)[C@H]21 [MIV-701 besylate salt]
Outgoing: 4

====

# Assay info: Plasma pharmacokinetic of MIV-701 after single and repeated oral administration of MIV-701 besylate salt in healthy cats
# Assay type: in vivo
# Settings: cat, plasma MIV-701, oral 2 mg/kg once daily, Day 13 (repeated), read-out: T1/2 elimination (converted)
Counter-ions that a name gives are not always drawn.
Observable: half-life at 312 h (h)
Numeric only. Scale: h

Incoming: Give its half-life at 312 h value. Item: CC(C)C[C@H](NC(=O)c1ccc(-c2csc(N3CCN(C)CC3)n2)cc1)C(=O)N1C[C@H](F)[C@H]2OCC(O)(O)[C@H]21 [MIV-701 besylate salt]
Outgoing: 3.9
